assay: Pharmacokinetics in plasma and brain after IP dosing; assay type: in vivo; settings: male, Sprague Dawley, rat, brain, ip, 5 mg/kg, brain, 5 mg/kg IP, read-out: T1/2 (converted)
EXPERIMENTAL_ENDPOINT: half-life (min)
Please give a number only; it is taken to be in min.

Ask: Return value of half-life for input CNC(C)C(=O)c1ccc2c(c1)OCO2 (stereo not shown) , no commentary.
Result: 41.5

* * *

assay: Pharmacokinetics in plasma and brain after IP dosing; format: in vivo; details: male, Sprague Dawley, rat, brain, ip, 5 mg/kg, brain, 5 mg/kg IP, read-out: MRT0–last
EXPERIMENTAL_ENDPOINT: MRT last (min)
Please give a number only; it is taken to be in min.

Ask: Return value of MRT last for input CNC(C)C(=O)c1ccc2c(c1)OCO2 (stereo not shown) , no commentary.
Result: 41.8

* * *

test: Pharmacokinetics in plasma and brain after IP dosing; format: in vivo; settings: male, Sprague Dawley; brain, 10 mg/kg IP, rat
EXPERIMENTAL_ENDPOINT: Cmax
In your response, put the unit directly after the numeric value.

Ask: Return value of Cmax for input CNC(C)C(=O)c1ccc2c(c1)OCO2 (stereo not shown) , no commentary.
Result: 8020 ng/g

* * *

assay: Pharmacokinetics in plasma and brain after IP dosing; assay type: in vivo; settings: male, Sprague Dawley, rat, plasma, ip, 10 mg/kg, plasma, 10 mg/kg IP, read-out: MRT0–last
EXPERIMENTAL_ENDPOINT: MRT last

Ask: Return value of MRT last for input CNC(C)C(=O)c1ccc2c(c1)OCO2 (stereo not shown) , no commentary.
Result: 1.07 h

* * *

test: Pharmacokinetics in plasma and brain after IP dosing; format: in vivo; settings: male, Sprague Dawley, rat, plasma, ip, 15 mg/kg, plasma, 15 mg/kg IP, read-out: MRT0–last
EXPERIMENTAL_ENDPOINT: MRT last (h)
Please give a number only; it is taken to be in h.

Ask: Return value of MRT last for input CNC(C)C(=O)c1ccc2c(c1)OCO2 (stereo not shown) , no commentary.
Result: 1.13

* * *

experiment: Pharmacokinetics in plasma and brain after IP dosing; assay type: in vivo; settings: male, Sprague Dawley; brain, 5 mg/kg IP, rat
EXPERIMENTAL_ENDPOINT: Cmax (ng/g)
Please give a number only; it is taken to be in ng/g.

Ask: Return value of Cmax for input CNC(C)C(=O)c1ccc2c(c1)OCO2 (stereo not shown) [methylone, 3,4-methylenedioxy-N-methylcathinone] , no commentary.
Result: 3510

* * *

assay: Pharmacokinetics in plasma and brain after IP dosing; format: in vivo; conditions: male, Sprague Dawley, rat, brain, ip, 15 mg/kg, brain, 15 mg/kg IP, read-out: MRT0–last
EXPERIMENTAL_ENDPOINT: MRT last
In your response, put the unit directly after the numeric value.

Ask: Return value of MRT last for input CNC(C)C(=O)c1ccc2c(c1)OCO2 (stereo not shown) [methylone, 3,4-methylenedioxy-N-methylcathinone] , no commentary.
Result: 1.01 h

* * *

assay: Pharmacokinetics in plasma and brain after IP dosing; type: in vivo; conditions: male, Sprague Dawley, rat, brain and plasma, ip, 10 mg/kg, 10 mg/kg IP, read-out: AUC ratio (brain: plasma)
EXPERIMENTAL_ENDPOINT: Kp

Ask: Return value of Kp for input CNC(C)C(=O)c1ccc2c(c1)OCO2 (stereo not shown) [methylone, 3,4-methylenedioxy-N-methylcathinone] , no commentary.
Result: 1.72
